target: Cytochrome P450 2D6 (Homo sapiens) (UniProt P10635); experiment: Cytochrome panel assay with activity outcomes; settings: recombinant CYP, pro-luciferin dealkylation, luminescence, p450-cyp2d6; series mostly up to 57.1 µM
Sequence (P10635 whole entry, looked up): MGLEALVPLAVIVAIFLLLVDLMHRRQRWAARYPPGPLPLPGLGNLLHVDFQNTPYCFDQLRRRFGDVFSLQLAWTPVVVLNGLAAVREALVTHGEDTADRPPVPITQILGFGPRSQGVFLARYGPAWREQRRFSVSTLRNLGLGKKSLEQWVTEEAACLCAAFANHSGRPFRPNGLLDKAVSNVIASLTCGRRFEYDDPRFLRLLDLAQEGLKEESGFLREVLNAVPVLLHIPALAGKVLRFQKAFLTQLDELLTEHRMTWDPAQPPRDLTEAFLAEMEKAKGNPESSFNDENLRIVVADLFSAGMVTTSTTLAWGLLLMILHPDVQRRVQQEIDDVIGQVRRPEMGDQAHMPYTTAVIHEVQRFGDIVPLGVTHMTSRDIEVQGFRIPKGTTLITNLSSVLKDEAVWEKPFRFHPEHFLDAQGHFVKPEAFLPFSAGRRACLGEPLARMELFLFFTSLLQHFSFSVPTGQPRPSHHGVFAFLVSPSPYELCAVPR
The campaign covered roughly 16,000 compounds. About 2,600 (16%) were called active. About 20% were inconclusive and are not listed. Calls come from the whole dose curve; as a rule, active = well fitted curve in the direction sought with a large enough effect; inconclusive = small, poorly fitted or top-dose-only effect, or effect the other way; inactive = no such curve, though single readings can be large or run the other way. These entries were drawn from the full list.
Write down one outcome, taken from 1 (yes) = active, 0 (no) = inactive

**Q:** Recorded test call requested for O=C1c2ccccc2C(=O)N1CC1CCCO1 (stereo unspecified)
**A:** 0 (no)

**Q:** Try this compound next: Cc1ccc(C(=O)NC(=S)Nc2ccc(S(=O)(=O)N3CCN(C)CC3)cc2)cc1
**A:** 0 (no)

**Q:** Try this compound next: COC(=O)CSc1nnc(CNc2ccc(Cl)cc2)n1-c1ccccc1
**A:** 0 (no)

**Q:** Try this compound next: CC(=O)c1[nH]c(C)c(C(C)=O)c1C
**A:** 0 (no)

**Q:** Try this compound next: Nc1ncc(-c2ccccc2)n1CC1CCCO1 (stereo unspecified)
**A:** 1 (yes)

**Q:** Try this compound next: CC(C)OC(=O)C(C)(C)Oc1ccc(C(=O)c2ccc(Cl)cc2)cc1
**A:** 0 (no)
